- System: OVCAR-5 ovarian
- METHOD NOTES: NCI tumour cell line growth inhibition, 48 h
*1 amine or outer side, *2 acyl side, *3 side chain or, on linkers, in order; H or OH if unused. Where a SMILES comes first, the peptide text is derived from it. [ ]: non-standard residue; d: D form. X33 = C=CCC(O[*:1])C(=O)[*:2]; NMeV = CN[CH](C(=O)O)C(C)C; NMeA = CN[CH](C)C(=O)O; βAla = NCCC(=O)O
Answer each item with its documented TGI.

Kindly note: OVCAR-5 ovarian, `Cc1[nH]c2ccccc2c1CCNCc1ccc(/C=C/C(=O)NO)cc1` , TGI value reported: 0.0911 µM

Kindly note: OVCAR-5 ovarian, C=CCC1OC(=O)CCNC(=O)C(C)N(C)C(=O)C(C(C)C)N(C)C(=O)C(C(C)CC)NC(=O)C2CCCN2C1=O (centres undefined) (cyclo([X33]PI[NMeV][NMeA][βAla]); configuration not given here) , TGI value reported: > 100 µM

Kindly note: OVCAR-5 ovarian, CC(C)C/C=C/C1=NN(c2cccc(S(=O)(=O)O)c2)C2(C1)SCC(=O)N2c1nc2ccccc2s1 (centres undefined) , TGI value reported: > 100 µM

Kindly note: OVCAR-5 ovarian, `Cc1ccc(Nc2nc(NS(=O)(=O)c3cc(C(=O)Nc4ccc(Cl)cc4)c(Cl)cc3S)n[nH]2)cc1` , TGI value reported: > 100 µM

###

- Test system: HT29 colon
- METHOD NOTES: NCI tumour cell line growth inhibition, 48 h
ENDPOINT: TGI (µM)
Response body: numeric value in µM, unit text excluded.

The molecule identified as `Cc1[nH]c2ccccc2c1CCNCc1ccc(/C=C/C(=O)NO)cc1` registered its TGI at 10.6

The molecule identified as Nc1n[nH]c2ccc([C@@H]3Nc4ccc5[nH]ncc5c4[C@H]4C5C=CC(C5)[C@@H]34)cc12 (stereo partly specified) registered its TGI at 28.7

The molecule identified as `CCN(CC)C(=S)N=Nc1c(O)[nH]c2ccccc12` registered its TGI at 14.8

The molecule identified as CC1CCC(C(C)C)C(O[C@@H]2OC(=O)C[C@@H]2Sc2ccccc2)C1 (stereo partly specified) registered its TGI at 34.3

The molecule identified as `CN(CCCN(C)CCc1ccc(Cl)c(Cl)c1)CCCN1CCCC1` registered its TGI at 2.58

The molecule identified as Cc1ccc(S(=O)(=O)NNC2(NS(=O)(=O)c3ccc(Cl)cc3)C(Cl)=C(Cl)C(=O)c3ccccc32)cc1 (stereo unspecified) registered its TGI at 35.1

The molecule identified as `CC(=O)O[C@H]1CC[C@@]2(C)[C@@H](CC[C@@H]3[C@@H]2CC[C@]2(C)C=C(C=O)C[C@@H]32)C1` registered its TGI at 25.6

The molecule identified as `O=C(CN1CCN(c2ccccc2)CC1)N1CCN(c2nnc(-c3ccc(Cl)cc3)c(-c3ccc(Cl)cc3)n2)CC1` registered its TGI at 24

The molecule identified as `CC(=O)N1N(c2ccc([N+](=O)[O-])cc2)C(=O)C1(C)C` registered its TGI at 44.8

###

- Test system: HCT-15 colon
- METHOD NOTES: NCI tumour cell line growth inhibition, 48 h
ENDPOINT: GI50

The molecule identified as `Cn1cc(-c2ccc(-c3cn(C)c4ccc(Cl)cc34)s2)c2cc(Cl)ccc21` registered its GI50 at > 100000 nM

The molecule identified as `CCOC(=O)c1nc(Nc2ccc(Cl)cc2)c2ccccc2n1` registered its GI50 at 14900 nM

The molecule identified as CN(C)CC1CCCCCC(CN(C)C)C1=O (configuration not stated) registered its GI50 at 1240 nM

The molecule identified as `O=C(CN(/C=C/C(=O)C(F)(F)F)c1ccccc1)c1ccc(Cl)c(Cl)c1` registered its GI50 at 14600 nM

The molecule identified as `CCOc1ccccc1/C=N\N=C(\N)N/N=C/c1ccccc1OCC` registered its GI50 at 1460 nM

The molecule identified as `O=C(CCCSc1nc(-c2ccccc2)cc(-c2ccc(Cl)cc2)n1)NO` registered its GI50 at 382 nM

The molecule identified as CCCCNC(=O)NS(=O)(=O)c1ccc(N2N=C(c3cc(C)ccc3C)CC2c2cc(OC)c(OC)c(OC)c2)cc1 (configuration not stated) registered its GI50 at 2810 nM
